Measured normalized growth by item
assay: chemical genetic growth profiling, strain panel (AID 1159580);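 further: tested at 20 µM; growth read once vehicle control cultures reached saturation at 30 °C; 1 = growth at the plate median or of vehicle wells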; settings: S. cerevisiae deletion strains, growth OD, locus YEL061C, strain CIN8, stronger effect = lower value
Among all 5,500 compounds or so, about 2,000 (36%) were called active. Inconclusive results (about 18%) are left out. The list shows a part of the results.
Number only, no unit.

>  <Cpd smiles>
COc1cc(O)c2c(=O)cc(-c3ccc(OC)c(-c4c(O)cc(O)c5c(=O)cc(-c6ccc(O)cc6)oc45)c3)oc2c1

>  <Reported value>
0.934

$$$$
>  <Cpd smiles>
CC(=O)c1ccccc1OC(=O)c1c(-c2c(Cl)cccc2Cl)noc1C

>  <Reported value>
1.01

$$$$
>  <Cpd smiles>
COc1cc(O)c2c(=O)cc(-c3ccc(O)cc3)oc2c1

>  <Reported value>
1

$$$$
>  <Cpd smiles>
Cc1ccc(OS(=O)(=O)c2ccc(Cl)cc2)c([N+](=O)[O-])n1

>  <Reported value>
0.964

$$$$

Q) Name the reported normalized growth value associated with the compound COc1cc(C)c2c(=O)c3c(O)cc(O)cc3oc2c1
A) 1.02

Q) Follow-up entry: COc1ccc(-c2cc(=O)c3c(O)cc(O)cc3o2)cc1O
A) 0.994

###

assay: chemical genetic growth profiling, strain panel (AID 1159580); conditions: S. cerevisiae deletion strains, growth OD, locus YJL166W, strain qcr8, stronger effect = lower value
Hit rate of the full screen: of about 5,500 compounds, about 2,000 (36%) were called active. Not shown: some 18% with an inconclusive outcome. The list shows a part of the results.
The reader will find reported normalized growth values listed item by item below.
Just the number, please, no unit after it.

Below, 3 compounds whose answers are already recorded.
>  <Compound>
CCCCC(=O)O[C@]1(C(=O)CO)[C@@H](C)CC2C3CCC4=CC(=O)C=C[C@]4(C)[C@@]3(F)C(O)C[C@@]21C (some centres not stated)

>  <Assay readout>
normalized growth

>  <Reported value>
0.941

$$$$
>  <Compound>
O=C(O)C1=CC(=C(c2ccc(O)c(C(=O)O)c2)c2ccc(O)c(C(=O)O)c2)C=CC1=O

>  <Assay readout>
normalized growth

>  <Reported value>
0.979

$$$$
>  <Compound>
CCC(=O)OCC(=O)C1(OC(=O)CC)C(C)CC2C3CCC4=CC(=O)C=CC4(C)C3(Cl)C(O)CC21C (configuration not stated)

>  <Assay readout>
normalized growth

>  <Reported value>
0.947

$$$$

Q) Given the entry NC[C@@H]1O[C@H](O[C@@H]2[C@@H](CO)OC(O[C@@H]3[C@@H](O)[C@H](N)C[C@H](N)[C@H]3O[C@H]3O[C@H](CO)[C@@H](O)[C@H](O)[C@H]3N)[C@@H]2O)[C@H](N)[C@@H](O)[C@@H]1O (some centres not stated) , report its measured normalized growth.
A) 0.986

Q) One more compound: COC(=O)CC1C(C)(C)C(OC(C)=O)[C@@H]2[C@@H](OC(C)=O)[C@]34O[C@@]2(O)[C@]1(C)C3CC[C@]1(C)C4=CC(=O)O[C@H]1c1ccoc1 (some centres not stated)
A) 1.01

Q) Same question, COc1ccccc1N1CCN(CCCNc2cc(=O)n(C)c(=O)n2C)CC1 this time
A) 1.01

Q) Okay, and O=C(O)CCc1nc(-c2ccccc2)c(-c2ccccc2)o1 ?
A) 0.976

###

assay: chemical genetic growth profiling, strain panel (AID 1159580);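 further: tested at 20 µM; growth read once vehicle control cultures reached saturation at 30 °C; 1 = growth at the plate median or of vehicle wells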; details: S. cerevisiae deletion strains, growth OD, locus YBR279W, strain paf1, stronger effect = lower value
The campaign covered roughly 5,500 compounds. About 2,000 (36%) were called active. About 18% were inconclusive and are not listed. The list shows a part of the results.
Recorded normalized growth, one value per entry.
Respond numerically, and do not add a unit to the figure.

>  <Compound>
COP(N)(=O)SC (stereo unspecified)

>  <normalized growth>
1.01

$$$$

Q) Looking for the measured normalized growth of COc1ccc(-c2cc(=O)c3c(O)c(OC)c(O[C@H]4O[C@H](CO[C@@H]5O[C@@H](C)[C@H](O)[C@@H](O)[C@H]5O)[C@@H](O)[C@H](O)[C@H]4O)cc3o2)cc1 , can you help?
A) 0.987

Q) What do you get for COc1ccc(-c2cc(=O)c3c(O)c(OC)c(OC)c(OC)c3o2)cc1OC ?
A) 0.995

Q) Now the compound Cc1c(C(N)=O)cc([N+](=O)[O-])cc1[N+](=O)[O-]
A) 1.02

Q) Now the compound O=C(CCCN1CCN(c2ccccn2)CC1)c1ccc(F)cc1
A) 0.93

Q) What do you get for O=C(CCCN1CCC(O)(c2ccc(Cl)cc2)CC1)c1ccc(F)cc1 ?
A) 0.918

Q) Record: NC(=O)c1ccc([N+](=O)[O-])cc1Cl
A) 0.988

Q) Here is the next compound: COc1cc(-c2cc(=O)c3c(O)c(OC)c(OC)c(OC)c3o2)cc(OC)c1OC
A) 0.998

Q) Continue with CC(C)c1cccc(O)c(=O)c1
A) 0.0689

Q) Can you check O=C1CC2(CCCC2)CC(=O)N1CCCCN1CCN(c2ncccn2)CC1 next?
A) 0.999

Q) COc1ccc(-c2cc(=O)c3c(O)cc(O)cc3o2)cc1 , same question.
A) 0.977

###

assay: chemical genetic growth profiling, strain panel (AID 1159580);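 further: tested at 20 µM; growth read once vehicle control cultures reached saturation at 30 °C; 1 = growth at the plate median or of vehicle wells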; settings: S. cerevisiae deletion strains, growth OD, locus YBR231C, strain swc5
Out of some 5,500 compounds screened, about 2,000 (36%) were called active. Another 18% or so got no clear call; they are omitted. No stated cut-off is given here; in the data, active means normalized growth mostly below about 0.91 (no sharp cut-off); inconclusive means no clear call, values can overlap the other calls; inactive means mostly above about 0.92. The list shows a part of the results.
Give your call using only these classes: active, inactive

Please review the following examples before continuing.
>  <Molecule>
CC(C)c1cccc(C(C)C)c1O

>  <Qualitative label>
inactive

$$$$
>  <Molecule>
COC(=O)N/N=C\c1c[n+]([O-])c2ccccc2[n+]1[O-]

>  <Qualitative label>
inactive

$$$$
>  <Molecule>
C=CCSSCC=C

>  <Qualitative label>
inactive

$$$$
>  <Molecule>
COC(=O)C[C@H]1C(C)(C)[C@@H](O)[C@@H]2CC3=C4CC(O)O[C@@H](c5ccoc5)[C@]4(C)CCC3[C@@]1(C)C2=O (some centres undefined)

>  <Qualitative label>
inactive

$$$$
>  <Molecule>
Cc1cc(N)c2ccccc2[n+]1CCCCCCCCCC[n+]1c(C)cc(N)c2ccccc21

>  <Qualitative label>
active

$$$$
>  <Molecule>
CNC[C@H](O)c1cccc(O)c1

>  <Qualitative label>
inactive

$$$$
>  <Molecule>
COc1ccc(-c2cc(=O)c3c(O)c(OC)c(OC)c(OC)c3o2)cc1OC

>  <Qualitative label>
inactive

$$$$
>  <Molecule>
COc1ccc(-c2cc(=O)c3c(O)cc(O)cc3o2)cc1

>  <Qualitative label>
inactive

$$$$

Q) Which outcome was entered for the molecule CC1(C)C(=O)CC[C@@]2(C)C1C[C@@H](O)[C@@]1(C)C3=CC(=O)O[C@@H](c4ccoc4)[C@]3(C)CCC21 (some centres undefined) in this test?
A) inactive

Q) Same question, CC1=C2C(O)C(=O)OC3CC4C(C)(C)C(=O)C=C[C@]4(C)C(CC1)[C@]23C (some centres undefined) this time
A) inactive

Q) Consider next the molecule C[C@@H](CO)NC(=O)C1C=C2c3cccc4[nH]cc(c34)C[C@H]2N(C)C1 (some centres undefined) in the same way.
A) inactive

Q) Repeat for the following molecule: C[N+]1(C)C[C@H](O)[C@H](C(=O)[O-])C1
A) inactive

Q) Please answer likewise for CC1(C)C(O)CC(=O)C2(C)C1CC(O)C1(C)C2CCC2(C)C(c3ccoc3)OC(=O)C3OC321 (centres undefined)
A) inactive

Q) And the next one, O=C(Oc1ccccc1C(=O)O)c1ccccc1O ?
A) inactive

###

assay: chemical genetic growth profiling, strain panel (AID 1159580);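 further: tested at 20 µM; growth read once vehicle control cultures reached saturation at 30 °C; 1 = growth at the plate median or of vehicle wells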; conditions: S. cerevisiae deletion strains, growth OD, locus YKL067W, strain YNK1, stronger effect = lower value
About 2,000 (36%) of roughly 5,500 compounds were called active. Another 18% or so got no clear call; they are omitted. Some of the results follow.
Please use Satisfied for normalized growth under 0.9 and Not satisfied for everything else, ties included.

The following compounds have reported results that may help.
>  <Compound>
CC1(C)C=Cc2cc(/C(N)=N\OC(=O)Nc3cccc(C(F)(F)F)c3)ccc2O1

>  <Qualitative label>
Not satisfied

$$$$
>  <Compound>
Cc1cc(Br)c(O)c(/C=N\NC(=S)NC(C)(C)C)c1

>  <Qualitative label>
Not satisfied

$$$$

Q) Here's an entry: Cc1cc(-c2onc(C)c2C(=O)Sc2ccccc2)no1 . Is its normalized growth below 0.9?
A) Satisfied

Q) What would you report for CN1/C(=C/C=C/c2ccc3ccccc3[n+]2C)C=Cc2ccccc21 ?
A) Satisfied

Q) Then O=C(NC(=S)NNc1ncc(C(F)(F)F)cc1Cl)c1cccs1 ?
A) Satisfied

Q) Note, next up: O=C1/C(=C/c2c[nH]c3ccccc23)CSc2ccccc21
A) Not satisfied

Q) Proceed to Clc1cccc(Cl)c1C1CC(c2ccccc2)=Nc2ccccc2S1 (centres undefined)
A) Not satisfied

Q) Now the compound O=C1Nc2ccccc2/C1=C\c1c[nH]c2ccccc12
A) Satisfied
